Target: PTHR1 (Homo sapiens)
Sequence (Q03431 27-593): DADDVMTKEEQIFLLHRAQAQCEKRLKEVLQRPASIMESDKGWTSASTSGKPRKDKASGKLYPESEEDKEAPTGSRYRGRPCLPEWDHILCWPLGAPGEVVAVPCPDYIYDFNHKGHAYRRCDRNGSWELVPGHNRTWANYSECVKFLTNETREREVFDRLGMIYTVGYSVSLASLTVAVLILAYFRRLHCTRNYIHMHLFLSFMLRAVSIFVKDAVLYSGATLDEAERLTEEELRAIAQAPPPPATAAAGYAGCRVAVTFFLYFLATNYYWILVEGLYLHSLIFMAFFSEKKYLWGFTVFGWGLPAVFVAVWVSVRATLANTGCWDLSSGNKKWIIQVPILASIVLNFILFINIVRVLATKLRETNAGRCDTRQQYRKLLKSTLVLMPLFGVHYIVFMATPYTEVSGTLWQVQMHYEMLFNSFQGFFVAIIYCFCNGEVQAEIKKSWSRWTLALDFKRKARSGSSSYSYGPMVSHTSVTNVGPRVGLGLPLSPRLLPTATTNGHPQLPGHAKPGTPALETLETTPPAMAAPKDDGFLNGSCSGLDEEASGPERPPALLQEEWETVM
Test: cAMP accumulation assay (HTRF) in CHO-K1/Ga15/PTHR1 cells
Type: cell-based
Set-up: host or cells: CHO-K1 (recombinant line CHO-K1/Ga15/PTHR1)
Settings: cAMP accumulation, fitted curve slope; replicate plates
Where no end group is shown, it is not given here.
# −log10Slope listing for each entry below
# answer = number (no unit)

Record excerpt, results attached:
GVYAIQAMHDLAKIRAEYELREMLLRLLEEIF [Peptide R2-10] = −8.781
GIAVITIMIDYAKLRAEYELREMLLRLLEEIF [Peptide R2-22] = 7.165

Measured −log10Slope for this entry AVAEIQLMHQRAKWGLDLELRARLREILRDVY [Peptide R2-31] on PTHR1 (Homo sapiens): −0.697
